# target.or.system: UniProt P14902
# Sequence (P14902 whole entry): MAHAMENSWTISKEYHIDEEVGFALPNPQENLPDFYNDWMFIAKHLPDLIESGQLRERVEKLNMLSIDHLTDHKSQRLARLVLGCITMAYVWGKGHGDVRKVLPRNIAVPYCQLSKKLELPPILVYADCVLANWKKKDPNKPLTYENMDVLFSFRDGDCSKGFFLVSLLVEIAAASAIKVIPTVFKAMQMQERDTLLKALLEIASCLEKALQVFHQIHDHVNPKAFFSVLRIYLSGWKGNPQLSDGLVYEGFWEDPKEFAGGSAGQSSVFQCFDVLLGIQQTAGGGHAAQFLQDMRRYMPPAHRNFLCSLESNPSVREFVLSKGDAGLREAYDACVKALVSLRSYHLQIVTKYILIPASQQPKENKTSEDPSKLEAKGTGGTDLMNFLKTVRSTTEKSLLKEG
# experiment: IDO1 Cellular Assay in HeLa Cells Stimulated with IFNγ
# Assay type: cell-based
# assay.context: about 48 hours, read-out: Hela IC50
Here, each record is paired with measured IC50 data.
Reply numerically in nM, unit not repeated.

Study these solved cases before continuing.
| compound | target.or.system | IC50 (nM) |
| --- | --- | --- |
| O=C(C1CCCCO1)N1CCCc2nc(C3(C(=O)Nc4ccc(F)cc4)CCC3)ccc21 (single isomer, unassigned) [Example 178] | UniProt P14902 | 1.6 |
| C[C@H](C(=O)Nc1ccc(F)cc1)c1ccc2c(c1)CCCN2C(=O)[C@@H]1CCOC1 | UniProt P14902 | 51.6 |
| CC(C)C(=O)N1CCCc2cc([C@H](C)C(=O)Nc3ccc(F)cc3)ccc21 | UniProt P14902 | 9.4 |
| CC(C(=O)Nc1ccc(F)cc1)c1ccc2c(n1)CCCN2C(=O)C1CCCCO1 (single isomer, unassigned) [Example 159] | UniProt P14902 | 1.5 |
| C[C@@H](NC(=O)c1ccc(F)cc1)c1ccc2c(n1)CCCN2C(=O)[C@H]1CC1(F)F (single isomer, unassigned) | UniProt P14902 | 24 |
| O=C(Nc1ccc(Cl)cc1)C1(c2ccc3c(n2)CCN3c2ccccn2)CCC1 | UniProt P14902 | 1.9 |
| Cc1nccc(N2CCCc3nc(C4(NC(=O)c5ccc(Cl)nc5)CC4)ccc32)n1 | UniProt P14902 | 1.9 |
| C[C@H](NC(=O)c1ccc(F)cn1)c1ccc2c(c1)CCCN2C(=O)C1(F)CC1 (single isomer, unassigned) | UniProt P14902 | 800 |
| O=C(Nc1ccc(F)cn1)C1(c2ccc3c(c2)CCCN3S(=O)(=O)C2CC2)CCC1 | UniProt P14902 | 26.2 |
| O=C(c1cnn(CC(F)F)c1)N1CCCc2cc(C3(C(=O)Nc4ccc(F)cc4)CCC3)ccc21 | UniProt P14902 | 86.1 |

compound C[C@@H](NC(=O)c1ccc(F)cc1)c1ccc2c(n1)CCCN2C(=O)[C@H]1CCCO1 , IC50 observed: 8

compound O=C(C1CC1)N1CCCc2cc(C3(C(=O)Nc4ccc(F)cc4)CCC3)ccc21 , IC50 observed: 1.7

compound CO[C@H]1C[C@H](C(=O)N2CCCc3cc([C@H](C)C(=O)Nc4ccc(F)cc4)ccc32)C1 , IC50 observed: 17.6

compound CC(C(=O)Nc1ccc(F)cc1)c1ccc2c(c1)CCCN2C(=O)C1CC1(F)F (stereo not drawn) , IC50 observed: 4.1

compound CS(=O)(=O)N1CCCc2cc(C3(C(=O)Nc4ccc(F)cn4)CCC3)ccc21 , IC50 observed: 34.1

compound CC(NC(=O)c1ccc(Cl)cc1)c1ccc2c(n1)CCCN2C(=O)c1cc(C2CC2)ccn1 (stereo not drawn) , IC50 observed: 3.2

compound CN(C)C(=O)N1CCCc2cc(C3(C(=O)Nc4ccc(F)cn4)CCC3)ccc21 , IC50 observed: 149

compound COCCOCC(=O)N1CCCc2cc([C@H](C)C(=O)Nc3ccc(F)cc3)ccc21 , IC50 observed: 1240

compound CC(C(=O)Nc1ccc(Cl)cc1)c1ccc2c(c1)CC(F)CN2C(=O)c1cccc(Cl)c1 (single isomer, unassigned) [Example 258] , IC50 observed: 5.86

compound CC(NC(=O)c1ccc(F)cc1)c1ccc2c(n1)CCCN2c1cc(C(F)(F)F)ncn1 (stereo not drawn) , IC50 observed: 17
